Data origin: patent US20250163119A1

# TEST_PROTOCOL: Pharmacokinetics in CD-1 mice, single 100 nmol/kg subcutaneous dose
# Type: in vivo
# CONDITIONS_USED: mouse, plasma, sc, male CD-1 mice, mean
*1 amine or outer side, *2 acyl side, *3 side chain or, on linkers, in order; H or OH if unused. Side-chain parts run from the residue outwards. [ ]: non-standard residue; d: D form. The star is where a group is joined. C20 diacid = O=C(O)CCCCCCCCCCCCCCCCCCC(=O)*; γGlu = O=C(O)[C@H](CCC(=O)[*:2])N[*:1]; εLys = N[C@@H](CCCCN[*:1])C(=O)[*:2]; pGlu = O=C1CC[C@@H](C(=O)O)N1; αMeL = CC(C)C[C@](C)(N)C(=O)O; AEEA = NCCOCCOCC(=O)O; Aib = CC(C)(N)C(=O)O
Record form. Attribute: Cmax. Fill in for each entry.
Give bare numbers, in nM.

Recorded Cmax, per entry:
SUBSTANCE | TEST_VALUE
{C20 diacid-εLys-AEEA-γGlu}-GSPSIVTS[αMeL]DVPT[Aib][αMeL]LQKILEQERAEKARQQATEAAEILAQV-NH2 [SEQ ID NO: 25] | 366
[pGlu]GSPSGIVTS[αMeL]DVPT[Aib][αMeL]LQKILEQERAEKARQQAK([γGlu-AEEA-εLys-C20 diacid])EAAEILAQV-NH2 [SEQ ID NO: 22] | 270

# input What value of Cmax has been recorded for this entry: Ac-GSPSIVTS[αMeL]DVPT[Aib][αMeL]LQKILEQERAEKARQQAK([γGlu-AEEA-εLys-C20 diacid])EAAEILAQV-NH2 [SEQ ID NO: 1]
# output 327

---

# TEST_PROTOCOL: Pharmacokinetics in Yucatan mini-pigs, single subcutaneous or intravenous dose
# Type: in vivo
# CONDITIONS_USED: male, Yucatan mini-pig, minipig, plasma, sc, 18 nmol/kg, single subcutaneous dose 18 nmol/kg, Mean, read-out: CL/F (converted)
*1 amine or outer side, *2 acyl side, *3 side chain or, on linkers, in order; H or OH if unused. Side-chain parts run from the residue outwards. [ ]: non-standard residue; d: D form. The star is where a group is joined. C20 diacid = O=C(O)CCCCCCCCCCCCCCCCCCC(=O)*; γGlu = O=C(O)[C@H](CCC(=O)[*:2])N[*:1]; εLys = N[C@@H](CCCCN[*:1])C(=O)[*:2]; pGlu = O=C1CC[C@@H](C(=O)O)N1; αMeL = CC(C)C[C@](C)(N)C(=O)O; AEEA = NCCOCCOCC(=O)O; Aib = CC(C)(N)C(=O)O
PROPERTY_MEASURED: CL/F
Don't forget the unit after the value.

# input If you can, please state the reported CL/F value of [pGlu]GSPSGIVTS[αMeL]DVPT[Aib][αMeL]LQKILEQERAEKARQQAK([γGlu-AEEA-εLys-C20 diacid])EAAEILAQV-NH2 [SEQ ID NO: 22] .
# output 20 mL/day/kg

---

# TEST_PROTOCOL: Pharmacokinetics in Cynomolgus monkeys, single subcutaneous or intravenous dose
# Type: in vivo
# CONDITIONS_USED: both sexes, cynomolgus monkey, plasma, single intravenous dose 190 nmol/kg, Mean, read-out: C0
# Description: Plasma concentrations of compounds were determined by LC/MS methods. For each assay, the compound and an internal standard (IS), were extracted from 100% mouse, rat, pig, or monkey plasma (70 μL) using Isopropanol-Methanol. Two distinct layers were formed upon centrifugation with the compound and the IS located in the supernatant layer. […] The column effluent was directed into a Thermo Fisher Scientific Orbitrap (Exploris 240) mass spectrometer for detection and quantitation. […]
*1 amine or outer side, *2 acyl side, *3 side chain or, on linkers, in order; H or OH if unused. [ ]: non-standard residue; d: D form. The star is where a group is joined. C20 diacid = O=C(O)CCCCCCCCCCCCCCCCCCC(=O)*; γGlu = O=C(O)[C@H](CCC(=O)[*:2])N[*:1]; εLys = N[C@@H](CCCCN[*:1])C(=O)[*:2]; αMeL = CC(C)C[C@](C)(N)C(=O)O; AEEA = NCCOCCOCC(=O)O; Aib = CC(C)(N)C(=O)O
PROPERTY_MEASURED: C0 (µM)
Numbers only, in µM.

# input Any idea what its C0 is? The substance is {C20 diacid-εLys-AEEA-γGlu}-GSPSIVTS[αMeL]DVPT[Aib][αMeL]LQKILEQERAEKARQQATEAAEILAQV-NH2 [SEQ ID NO: 25]
# output 3.5

---

# TEST_PROTOCOL: Pharmacokinetics in Yucatan mini-pigs, single subcutaneous or intravenous dose
# Format: in vivo
# CONDITIONS_USED: Yucatan mini-pig, minipig, plasma, sc; male Yucatan pigs; single subcutaneous dose 18 nmol/kg; Mean; read-out: Cmax
*1 amine or outer side, *2 acyl side, *3 side chain or, on linkers, in order; H or OH if unused. Side-chain parts run from the residue outwards. [ ]: non-standard residue; d: D form. The star is where a group is joined. C20 diacid = O=C(O)CCCCCCCCCCCCCCCCCCC(=O)*; γGlu = O=C(O)[C@H](CCC(=O)[*:2])N[*:1]; εLys = N[C@@H](CCCCN[*:1])C(=O)[*:2]; pGlu = O=C1CC[C@@H](C(=O)O)N1; αMeL = CC(C)C[C@](C)(N)C(=O)O; AEEA = NCCOCCOCC(=O)O; Aib = CC(C)(N)C(=O)O
PROPERTY_MEASURED: Cmax
Be sure to follow the number with its unit.

# input Query: Cmax; subject: [pGlu]GSPSGIVTS[αMeL]DVPT[Aib][αMeL]LQKILEQERAEKARQQAK([γGlu-AEEA-εLys-C20 diacid])EAAEILAQV-NH2 [SEQ ID NO: 22]
# output 154 nM

---

I'd appreciate it if you could supply CL/F values for the items below.
# TEST_PROTOCOL: Pharmacokinetics in Sprague Dawley rats, single subcutaneous or intravenous dose (incl. 10, 30, 100 nmol/kg dose response)
# Format: in vivo
# CONDITIONS_USED: male, Sprague Dawley, rat, plasma, sc, 100 nmol/kg, dose response, single subcutaneous dose 100 nmol/kg, individual animal, read-out: CL/F (converted)
*1 amine or outer side, *2 acyl side, *3 side chain or, on linkers, in order; H or OH if unused. Side-chain parts run from the residue outwards. [ ]: non-standard residue; d: D form. The star is where a group is joined. C20 diacid = O=C(O)CCCCCCCCCCCCCCCCCCC(=O)*; γGlu = O=C(O)[C@H](CCC(=O)[*:2])N[*:1]; εLys = N[C@@H](CCCCN[*:1])C(=O)[*:2]; pGlu = O=C1CC[C@@H](C(=O)O)N1; αMeL = CC(C)C[C@](C)(N)C(=O)O; AEEA = NCCOCCOCC(=O)O; Aib = CC(C)(N)C(=O)O
Numbers only, in mL/h/kg.

Observe how each entry below is paired with its result.
SUBSTANCE | READOUT_UNIT | CL/F
{C20 diacid-εLys-AEEA-γGlu}-GSPSIVTS[αMeL]DVPT[Aib][αMeL]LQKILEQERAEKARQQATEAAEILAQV-NH2 [SEQ ID NO: 25] | mL/h/kg | 7.99
Ac-GSPSIVTS[αMeL]DVPT[Aib][αMeL]LQKILEQERAEKARQQAK([γGlu-AEEA-εLys-C20 diacid])EAAEILAQV-NH2 [SEQ ID NO: 1] | mL/h/kg | 5.46

Now for another entry.
# input Please look up its CL/F: [pGlu]GSPSGIVTS[αMeL]DVPT[Aib][αMeL]LQKILEQERAEKARQQAK([γGlu-AEEA-εLys-C20 diacid])EAAEILAQV-NH2 [SEQ ID NO: 22]
# output 3.85

---

# TEST_PROTOCOL: Pharmacokinetics in Sprague Dawley rats, single subcutaneous or intravenous dose (incl. 10, 30, 100 nmol/kg dose response)
# Assay type: in vivo
# CONDITIONS_USED: male, Sprague Dawley, rat, plasma, sc, 187 nmol/kg, single subcutaneous dose 187 nmol/kg, mean, read-out: CL/F (converted)
*1 amine or outer side, *2 acyl side, *3 side chain or, on linkers, in order; H or OH if unused. Side-chain parts run from the residue outwards. [ ]: non-standard residue; d: D form. The star is where a group is joined. C20 diacid = O=C(O)CCCCCCCCCCCCCCCCCCC(=O)*; γGlu = O=C(O)[C@H](CCC(=O)[*:2])N[*:1]; εLys = N[C@@H](CCCCN[*:1])C(=O)[*:2]; αMeL = CC(C)C[C@](C)(N)C(=O)O; AEEA = NCCOCCOCC(=O)O; Aib = CC(C)(N)C(=O)O
PROPERTY_MEASURED: CL/F (mL/h/kg)
Answers are plain numbers, in mL/h/kg.

# input Item under review: Ac-GSPSIVTS[αMeL]DVPT[Aib][αMeL]LQKILEQERAEKARQQAK([γGlu-AEEA-εLys-C20 diacid])EAAEILAQV-NH2 [SEQ ID NO: 1] . Reported CL/F?
# output 4.07
